# Study Target: KRAS (G12D) as expressed in G12D-mutant cancer cells (AsPC-1, SW 1990, pancreatic cancer cells) (human) (UniProt P01116)
# Protocol Description: cell-based or functional assay
Where no end group is shown, it is not given here. [ ]: non-standard residue; d: D form. The star is where a group is joined. dPhe(4-Br) = N[C@H](Cc1ccc(Br)cc1)C(=O)O; 2Nal = N[C@@H](Cc1ccc2ccccc2c1)C(=O)O; Palmitoyl = CCCCCCCCCCCCCCCC(=O)*; Cha = N[C@@H](CC1CCCCC1)C(=O)O; Dab = NCC[C@H](N)C(=O)O
Measured Parameter: pERK G12D (AsPC-1 at 4 µM for 12 hours)

// worked examples, pERK G12D (AsPC-1 at 4 µM for 12 hours) included
Binder	pERK G12D (AsPC-1 at 4 µM for 12 hours)
Ac-[dW][dK][dY][2Nal]K(Palmitoyl) (triazole (positions not given here); also: cyclic via triazole, ring-closing residues not given here) [Ac-wky(2-Nal)-Lys(Pal)]	0.71
Ac-[dW][dK][dPhe(4-Br)][dF]K(Palmitoyl) (triazole (positions not given here); also: cyclic via triazole, ring-closing residues not given here) [Ac-wk(4-Br-f)f-Lys(Pal)]	0.776
Ac-[dW][Dab][dY][dF]K(Palmitoyl) (triazole (positions not given here); also: cyclic via triazole, ring-closing residues not given here) [Ac-w(Dab)yf-Lys(Pal)]	0.625

[1] Ac-[dW][dK][dY][Cha]K(Palmitoyl) (triazole (positions not given here); also: cyclic via triazole, ring-closing residues not given here) [Ac-wky(Cha)-Lys(Pal)]
[2] Ac-[dW][dK][dY][dPhe(4-Br)]K(Palmitoyl) (triazole (positions not given here); also: cyclic via triazole, ring-closing residues not given here) [Ac-wky(4-Br-f)-Lys(Pal)]
For this pair, 1 and 2 , which shows a numerically higher pERK G12D (AsPC-1 at 4 µM for 12 hours)? Give the label under which the chosen entry appears. 1
